Every entry's value here was drawn from PubChem BioAssay (NCI).

Quick reference for TGI among some compounds
System: CAKI-1 renal
PROTOCOL SUMMARY: NCI tumour cell line growth inhibition, 48 h

# COMPOUND, TARGET SYSTEM, TGI
records = [
    ("CC(=O)OCCC/C(=C\\c1ccc2ccccc2c1)[N+](=O)[O-]", "CAKI-1 renal", "3.28 µM"),
    ("CC(=O)OCC1OC(OCC2OC(N3C(=S)N[C@H]([C@@H](O)[C@H](O)[C@H](O)CO)[C@H]3O)C(OC(C)=O)C(OC(C)=O)C2OC(C)=O)C(OC(C)=O)C(OC(C)=O)C1OC(C)=O (some centres undefined)", "CAKI-1 renal", "> 100 µM"),
    ("Cc1cn(C2C=CC(=O)C(C)O2)c(=O)[nH]c1=O (centres undefined)", "CAKI-1 renal", "31.5 µM"),
    ("O=C1c2ccccc2C2(c3ccc(Cl)cc3)NCc3ccccc3CN12 (centres undefined)", "CAKI-1 renal", "> 100 µM"),
]

---

System: HCC-2998 colon
PROTOCOL SUMMARY: NCI tumour cell line growth inhibition, 48 h
Quick reference for log10 of TGI among some molecules
READOUT: log10 of TGI (log10 of the value in µM)

# MOLECULE, log10 of TGI
records = [
    ("O=C(c1ccc(Cl)cc1)N(Cc1cccnc1)C(=S)N(Cc1cccnc1)C(=O)c1ccc(Cl)cc1", 1.79),
    ("Cc1ccccc1NC(=S)N/N=C(/c1ccccc1)c1ccccn1", 1.16),
    ("N/C(=N\\OC(=O)NC(Cl)=C(Cl)Cl)c1cc(C(F)(F)F)cc(C(F)(F)F)c1", 1.41),
    ("COc1cc(C(=O)/C=C/c2c(-c3ccc(F)cc3)nc3sccn23)cc(OC)c1OC", 0.60),
    ("COc1cc(C2c3cc4c(cc3C3OC(=O)C2C3CO)OCO4)cc(OC)c1OC (centres undefined)", -1.05),
    ("C/C1=C\\CC[C@@](C)(O)[C@H]2C[C@H](CC/C(C)=C/CC1)C1(CC1)C(=O)O2", 1.55),
    ("O=C(Cc1ccc(/C=C/C(=O)c2ncc[nH]2)cc1)Nc1ccc(Br)cc1", 0.70),
    ("ClCc1c(-c2ccccc2)nn(-c2ccccc2)c1CCl", 1.43),
    ("COC(=O)[C@]12CC[C@@H](C)[C@H](C)[C@@H]1C1=CC[C@@H]3[C@@]4(C)C(c5ncon5)=C[C@@](C)(CO)C4=CC[C@@]3(C)[C@]1(C)CC2", 0.58),
    ("COc1cc2c(cc1OCCCCC(=O)Nc1ccc(-c3nc4ccccc4s3)cc1)N=C[C@@H]1CCCN1C2=O", 0.51),
    ("c1ccc(Cn2cc3c(c2)-c2oncc2CC3)cc1", 0.68),
    ("CCC[CH2][Sn]1([CH2]CCC)[O]C(=O)C[S]1", 0.60),
    ("Oc1c(I)cc(I)cc1CNCCCN(Cc1ccccn1)Cc1ccccn1", 0.28),
    ("O=[N+]([O-])c1cccc2nc3ccccc3c(NCCC[N+]3([O-])CCCCC3)c12", -0.57),
    ("Cc1cc2nc3n(c2cc1C)C(c1c(F)cccc1F)SC3 (centres undefined)", 1.68),
    ("c1ccc(C(=NNc2nc3ccccc3[nH]2)c2ccccn2)nc1", 1.46),
]
